Sourced from ChEMBL document CHEMBL1177725

Biological target: Sodium-dependent serotonin transporter (Homo sapiens, UniProt P31645)
Sequence (P31645 whole entry): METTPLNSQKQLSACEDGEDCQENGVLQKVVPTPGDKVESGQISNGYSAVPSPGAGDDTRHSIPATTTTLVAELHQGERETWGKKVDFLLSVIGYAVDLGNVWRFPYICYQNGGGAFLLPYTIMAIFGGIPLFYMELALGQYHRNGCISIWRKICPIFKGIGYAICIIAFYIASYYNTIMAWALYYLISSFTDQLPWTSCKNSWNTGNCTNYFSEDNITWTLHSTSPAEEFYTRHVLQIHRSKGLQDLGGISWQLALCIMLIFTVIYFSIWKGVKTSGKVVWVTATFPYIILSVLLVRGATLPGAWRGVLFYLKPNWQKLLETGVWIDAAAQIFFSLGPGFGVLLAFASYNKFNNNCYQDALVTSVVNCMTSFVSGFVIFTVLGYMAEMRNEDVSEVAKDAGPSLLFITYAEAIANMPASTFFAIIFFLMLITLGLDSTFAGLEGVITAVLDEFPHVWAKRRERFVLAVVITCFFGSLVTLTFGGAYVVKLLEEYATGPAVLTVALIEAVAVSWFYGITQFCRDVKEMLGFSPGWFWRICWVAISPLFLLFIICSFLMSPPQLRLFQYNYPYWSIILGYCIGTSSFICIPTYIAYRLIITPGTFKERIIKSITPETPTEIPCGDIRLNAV
Assay: Displacement of [N-methyl-3H]citalopram from human recombinant SERT expressed in pig LLCPK cells after 2 hrs by liquid scintillation counting
Format: cell-based
Assign Ki to each entry below.
Give bare numbers, in nM.

For orientation, consider the following solved cases.
• COC[C@@]12CNCC[C@]1(c1ccc(Cl)c(C(F)(F)F)c1)C2 (racemic) = 15.8
• COC[C@@]12CNCC[C@]1(c1ccc(Cl)cc1)C2 (racemic) = 15.8
• CCOC(=O)[C@@]12CNCC[C@]1(c1ccc(Cl)c(Cl)c1)C2 (racemic) = 15.8
• COC[C@@]12CCNC[C@]1(c1ccc(Cl)c(Cl)c1)C2 (single isomer, unassigned) = 158
• COC[C@@]12CNCC[C@]1(c1ccc(Cl)c(Cl)c1)C2 (racemic) [GSK1360707] = 1.58
• CCOC[C@@]12CNCC[C@]1(c1ccc(Cl)c(Cl)c1)C2 (relative stereo; 30) = 10
• OC[C@@]12CNCC[C@]1(c1ccc(Cl)c(Cl)c1)C2 (relative stereo; 14) = 39.8
• COC[C@@]12CNC[C@H](F)[C@]1(c1ccc(Cl)c(Cl)c1)C2 (racemic) = 5.01
• C=CCC(OC)[C@]12CNCC[C@]1(c1ccc(Cl)c(Cl)c1)C2 (mixture of isomers; form 2) = 1.26
• COC[C@@]12CNC[C@@H](F)[C@]1(c1ccc(Cl)c(Cl)c1)C2 (racemic) = 3.98

Hey, can you go through the list below and give me Ki for every item?
1. COC[C@@]12CCNC[C@]1(c1ccc(Cl)c(Cl)c1)C2 (racemic)
2. CCOC[C@@]12CNCC[C@]1(c1ccc(Cl)c(Cl)c1)C2 (relative stereo; 31)
3. FC(F)(F)COC[C@@]12CNCC[C@]1(c1ccc(Cl)c(Cl)c1)C2 (racemic)
4. COC[C@@]12CN[C@@H](C)C[C@]1(c1ccc(Cl)c(Cl)c1)C2 (racemic)
5. CC(=O)[C@@]12CNCC[C@]1(c1ccc(Cl)c(Cl)c1)C2 (relative stereo)
6. COC[C@@]12CNCC[C@]1(c1ccc(Cl)c(Cl)c1)C2 (relative stereo; 18) [GSK1360707]

1. 31.6
2. 1
3. 6.31
4. 7.94
5. 1
6. 20

Hey, can you go through the list below and give me Ki for every item?
1. Clc1ccc([C@@]23CCNC[C@@H]2C3)cc1Cl (racemic)
2. COC[C@@]12CNCC[C@]1(c1ccc(C(F)(F)F)c(Cl)c1)C2 (racemic)
3. Clc1ccc([C@]23CCN4CC[C@]2(C4)C3)cc1Cl (single isomer, unassigned; 49)

[25.1, 15.8, 1.58]

Hey, can you go through the list below and give me Ki for every item?
1. OC[C@@]12CNCC[C@]1(c1ccc(Cl)c(Cl)c1)C2 (relative stereo; 15)
2. COC[C@@H]1[C@@H]2CNCC[C@]12c1ccc(Cl)c(Cl)c1 (racemic)
3. COC[C@@]12CCNC[C@]1(c1ccc(Cl)c(Cl)c1)C2 (relative stereo)
4. Clc1ccc([C@]23CCNC[C@@]2(COCC2CC2)C3)cc1Cl (racemic)

1. 7.94
2. 10
3. 12.6
4. 1.26

Dear colleague, I am looking for the recorded Ki of the following compound: COC[C@@]12CNCC[C@]1(c1ccc3ccccc3c1)C2 (racemic) 0.316
